- protocol notes: Quantitative High-Throughput drug screen in 47 multiple myeloma cell lines against the NCATS MIPE library collection: PE2_PLB cell viability assay (AID 1919869); further: nearly all actives have a fitted effect of over 35% in size; further: potency means the concentration at half of the fitted maximal effect
- test parameters: PE2_PLB myeloma cells viability, ATP luminescence, 48 h; series mostly up to 45.8 µM
- Text: PI: Beverly A. Mock Ph.D. Laboratory of Cancer Biology and Genetics, Center for Cancer Research, National Cancer Institute, National Institute of Health, Bethesda, Maryland […] 5; Detector; 425V; Luminescence; Viewlux PerkinElmer. […] 1. […] Briefly, the corresponding myeloma cell lines were screened in 1,536-well plates with 500 cells, 5-uL per well for inhibition of cell viability (assessed by measuring ATP levels with CellTiterGlo). […]
Inconclusive results are not listed. Activity calls are given as the source filed them. The call rests on the fitted dose curve; in most records, active means well fitted cell-killing curve with a large enough effect; inconclusive means small, poorly fitted or top-dose-only effect, or effect the other way; inactive means no such curve, though single readings can be large or run the other way.
measurement name: Potency

# entry smiles, measurement name, result
data = [
    ("O=C(O)CNC(=O)c1c(O)c2ccccc2n(Cc2ccccc2)c1=O", "Potency", "inactive"),
    ("C1=C2CCCN[C@H]2[C@@H]2C[C@H]1[C@@H]1CCCCN1C2", "Potency", "inactive"),
    ("Cc1[nH]nc2ccc(-c3cncc(OC[C@@H](N)Cc4c[nH]c5ccccc45)c3)cc12", "Potency", "0.935 µM (active)"),
    ("c1ccc(CCCN2CCN(CCOC(c3ccccc3)c3ccccc3)CC2)cc1", "Potency", "18.7 µM (active)"),
]

Source listed as PubChem BioAssay (NCATS).
